Sourced from PubChem BioAssay (NCI)

# System: HOP-18 NSCLC
# Experiment: NCI tumour cell line growth inhibition, 48 h
Measured TGI, listed per entry.
Measurement kind: TGI

[[record]]
molecule = "CCCCN(CC)CC(C(C)=O)c1c(O)c2ccccc2oc1=O (centres undefined)"
test_target = "HOP-18 NSCLC"
measurement_kind = "TGI"
experimental_value = "> 100 µM"

[[record]]
molecule = "Cc1c2ccccc2cc2ccc3oc([N+](=O)[O-])cc3c12"
test_target = "HOP-18 NSCLC"
measurement_kind = "TGI"
experimental_value = "62.8 µM"

[[record]]
molecule = "C=CC(OCC)(OCC)OCC"
test_target = "HOP-18 NSCLC"
measurement_kind = "TGI"
experimental_value = "> 100 µM"

[[record]]
molecule = "CN(C)CCNC(=O)c1cccc2nc(-c3ccccc3)oc12"
test_target = "HOP-18 NSCLC"
measurement_kind = "TGI"
experimental_value = "> 100 µM"

